# target or test system: BaF3 (HER2-G776insVC) (Homo sapiens, UniProt P04626, cells depend on it, form not given)
# Sequence (P04626 with tags, fused parts or gaps DELINS776-776VC): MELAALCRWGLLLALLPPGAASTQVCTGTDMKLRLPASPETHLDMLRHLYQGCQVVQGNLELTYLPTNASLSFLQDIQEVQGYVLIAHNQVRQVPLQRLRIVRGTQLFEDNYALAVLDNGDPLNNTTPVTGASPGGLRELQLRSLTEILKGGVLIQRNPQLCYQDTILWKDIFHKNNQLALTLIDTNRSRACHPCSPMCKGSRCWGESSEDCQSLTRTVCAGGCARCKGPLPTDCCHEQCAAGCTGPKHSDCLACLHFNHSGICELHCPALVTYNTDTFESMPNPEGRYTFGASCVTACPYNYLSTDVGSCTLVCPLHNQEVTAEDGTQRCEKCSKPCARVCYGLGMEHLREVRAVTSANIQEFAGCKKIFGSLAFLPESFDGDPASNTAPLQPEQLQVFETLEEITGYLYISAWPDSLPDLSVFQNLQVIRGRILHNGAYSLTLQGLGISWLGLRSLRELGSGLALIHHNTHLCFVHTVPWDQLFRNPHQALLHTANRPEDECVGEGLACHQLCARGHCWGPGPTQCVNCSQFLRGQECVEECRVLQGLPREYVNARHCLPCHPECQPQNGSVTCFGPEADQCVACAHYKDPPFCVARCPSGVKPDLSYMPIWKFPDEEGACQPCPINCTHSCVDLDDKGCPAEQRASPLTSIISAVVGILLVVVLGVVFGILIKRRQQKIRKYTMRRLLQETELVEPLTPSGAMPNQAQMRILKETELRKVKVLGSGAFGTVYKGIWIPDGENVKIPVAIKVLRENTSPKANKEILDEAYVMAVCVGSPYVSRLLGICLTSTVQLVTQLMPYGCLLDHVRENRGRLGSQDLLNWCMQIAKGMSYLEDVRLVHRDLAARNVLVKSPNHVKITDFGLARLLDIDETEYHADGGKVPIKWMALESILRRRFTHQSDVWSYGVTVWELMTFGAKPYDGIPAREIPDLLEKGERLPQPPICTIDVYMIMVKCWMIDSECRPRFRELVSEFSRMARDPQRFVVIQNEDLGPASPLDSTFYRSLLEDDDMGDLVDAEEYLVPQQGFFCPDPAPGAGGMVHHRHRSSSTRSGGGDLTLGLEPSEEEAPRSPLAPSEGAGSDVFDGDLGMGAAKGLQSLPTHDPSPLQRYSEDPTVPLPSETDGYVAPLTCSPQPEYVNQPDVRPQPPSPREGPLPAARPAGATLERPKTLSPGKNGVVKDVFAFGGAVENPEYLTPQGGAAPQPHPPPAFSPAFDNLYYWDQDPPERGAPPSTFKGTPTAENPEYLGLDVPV
# method notes: Test 11: BaF3 (HER2-G776insVC) cell proliferation test
# Format: cell-based
# condition context: 72 hours, Cell Titer-Glo, read-out: Test 11 - IC50
measured metric: GI50 (nM)

compound	measured metric	meas value
C=CC(=O)Nc1cc(Nc2ncnc(Oc3ccc(Cl)c(OC)c3)n2)c(OC)cc1N(C)CCN(C)C	GI50	11.4
C=CC(=O)Nc1cc(Nc2nccc(-c3cn(C)c4ccccc34)n2)c(OC)cc1N(C)CCN(C)C [Osimertinib (AZD9291), Osimertinib, reference compound]	GI50	21.5

a. C=CC(=O)Nc1cc(Nc2ncnc(-c3cn(C)c4ccc(F)cc34)n2)c(OCC(F)(F)F)cc1N(C)CCN(C)C
b. C=CC(=O)Nc1cc(Nc2ncnc(-c3cn(C)c4ccc(F)cc34)n2)c(OC)cc1N(C)CCN(C)C
c. C=CC(=O)Nc1cc(Nc2ncnc(Oc3ccc(Cl)c(OC)c3)n2)c(OC(F)F)cc1N(C)CCN(C)C
IN: // sort entries: GI50, high to low Give me the labels in the order the question wants.
OUT: c, a, b
(c: 8.36 nM, a: 1.83 nM, b: 1.07 nM)

====

# target or test system: BaF3 (EGFR-A763insFQEA) (Homo sapiens, UniProt P00533, INS763FQEA, cells depend on it)
# Sequence (P00533 with tags, fused parts or gaps INS763FQEA): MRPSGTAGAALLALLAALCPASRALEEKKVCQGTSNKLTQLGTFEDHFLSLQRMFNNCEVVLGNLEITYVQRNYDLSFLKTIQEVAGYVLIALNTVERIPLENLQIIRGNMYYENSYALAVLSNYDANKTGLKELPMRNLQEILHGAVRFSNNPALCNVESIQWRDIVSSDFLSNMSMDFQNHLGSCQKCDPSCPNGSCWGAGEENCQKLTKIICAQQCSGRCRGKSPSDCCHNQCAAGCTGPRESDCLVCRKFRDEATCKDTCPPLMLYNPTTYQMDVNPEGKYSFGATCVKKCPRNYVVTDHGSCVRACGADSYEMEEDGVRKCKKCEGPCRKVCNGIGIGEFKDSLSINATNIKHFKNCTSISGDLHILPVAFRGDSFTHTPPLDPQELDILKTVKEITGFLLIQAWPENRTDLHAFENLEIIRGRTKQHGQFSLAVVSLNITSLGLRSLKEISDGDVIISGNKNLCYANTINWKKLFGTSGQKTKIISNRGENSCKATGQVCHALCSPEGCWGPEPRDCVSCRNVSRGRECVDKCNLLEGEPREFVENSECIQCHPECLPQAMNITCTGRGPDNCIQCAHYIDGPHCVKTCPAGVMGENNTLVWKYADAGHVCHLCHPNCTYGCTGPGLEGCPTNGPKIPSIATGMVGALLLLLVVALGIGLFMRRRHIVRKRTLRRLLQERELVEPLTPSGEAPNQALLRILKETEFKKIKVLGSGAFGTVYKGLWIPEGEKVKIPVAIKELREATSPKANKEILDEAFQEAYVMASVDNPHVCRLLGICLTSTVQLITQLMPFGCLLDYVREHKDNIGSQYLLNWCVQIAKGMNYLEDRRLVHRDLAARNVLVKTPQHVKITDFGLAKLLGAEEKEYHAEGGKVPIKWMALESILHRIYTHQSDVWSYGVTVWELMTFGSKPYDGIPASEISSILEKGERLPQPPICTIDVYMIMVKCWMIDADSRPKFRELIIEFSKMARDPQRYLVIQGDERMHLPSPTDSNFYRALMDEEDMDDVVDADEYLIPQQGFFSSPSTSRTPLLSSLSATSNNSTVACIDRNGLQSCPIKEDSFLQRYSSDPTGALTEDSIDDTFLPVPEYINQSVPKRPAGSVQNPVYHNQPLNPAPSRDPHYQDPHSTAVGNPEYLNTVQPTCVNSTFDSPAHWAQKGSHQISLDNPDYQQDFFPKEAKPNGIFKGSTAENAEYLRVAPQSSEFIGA
# method notes: Test 3: BaF3 (EGFR-A763insFQEA) cell proliferation test
# Type: cell-based
# condition context: 72 hours, Cell Titer-Glo, read-out: Test 3 - IC50
measured metric: GI50 (nM)

These solved cases illustrate the format of a correct answer.
1. C=CC(=O)Nc1cc(Nc2ncnc(-c3cn(C)c4ccc(F)cc34)n2)c(OC(F)F)cc1N(C)CCN(C)C 7.6
2. C=CC(=O)Nc1cc(Nc2nccc(-c3cnc4c(C(F)(F)F)cccn34)n2)c(OC)cc1N(C)CCN(C)C 277
3. C=CC(=O)Nc1cc(Nc2nccc(-c3cnc4c(I)cccn34)n2)c(OC)cc1N(C)CCN(C)C 313
4. C=CC(=O)Nc1cc(Nc2ncnc(-c3cn(C)c4ccc(F)cc34)n2)c(OCC(F)(F)F)cc1N(C)CCN(C)C 14
5. C=CC(=O)Nc1cc(Nc2nccc(-c3cnc4c(F)cccn34)n2)c(OC)cc1N(C)CCN(C)C 42.6
6. C=CC(=O)Nc1cc(Nc2ncnc(-c3cn(C)c4ccc(OC)cc34)n2)c(OC)cc1N(C)CCN(C)C 16.6

A. C=CC(=O)Nc1cc(Nc2ncnc(-c3cn(C)c4ccc(F)cc34)n2)c(OC)cc1N(C)CCN(C)C
B. C=CC(=O)Nc1cc(Nc2ncnc(Oc3ccc(Cl)c(OC)c3)n2)c(OC(F)F)cc1N(C)CCN(C)C
C. C=CC(=O)Nc1cc(Nc2ncnc(-n3ccc4cnccc43)n2)c(OC)cc1N1CC[C@@H]1CN(C)C
D. C=CC(=O)Nc1cc(Nc2ncnc(-c3cn(C)c4ccc(Cl)cc34)n2)c(OC)cc1N(C)CCN(C)C
E. C=CC(=O)Nc1cc(Nc2ncnc(-c3cn(C)c4cc(Cl)c(OC)cc34)n2)c(OC)cc1N(C)CCN(C)C
IN: List these items ordered by GI50, big to small. Respond with the label ranking, as requested.
OUT: C, E, B, D, A
(C: 280 nM, E: 183 nM, B: 43.1 nM, D: 14.3 nM, A: 9.45 nM)

====

# target or test system: BaF3 (HER2-G776insVC) (Homo sapiens, UniProt P04626, cells depend on it, form not given)
# method notes: Test 11: BaF3 (HER2-G776insVC) cell proliferation test
# Format: cell-based
# condition context: 72 hours, Cell Titer-Glo, read-out: Test 11 - IC50
measured metric: GI50 (nM)

P. C=CC(=O)Nc1cc(Nc2ncnc(-c3cn(C)c4ccc(Cl)cc34)n2)c(OC)cc1N(C)CCN(C)C
Q. C=CC(=O)Nc1cc(Nc2ncnc(-c3cn(C)c4ccc(OC)cc34)n2)c(OC)cc1N(C)CCN(C)C
R. C=CC(=O)Nc1cc(Nc2ncnc(-c3cn(C)c4cc(Cl)c(OC)cc34)n2)c(OC)cc1N(C)CCN(C)C
IN: // sort entries: GI50, high to low Response format: the labels, sorted as the prompt asks.
OUT: R, Q, P

====

# target or test system: BaF3 (EGFR-V769insASV) (Homo sapiens, UniProt P00533, DUP767-769, cells depend on it)
# Sequence (P00533 with tags, fused parts or gaps DUP767-769): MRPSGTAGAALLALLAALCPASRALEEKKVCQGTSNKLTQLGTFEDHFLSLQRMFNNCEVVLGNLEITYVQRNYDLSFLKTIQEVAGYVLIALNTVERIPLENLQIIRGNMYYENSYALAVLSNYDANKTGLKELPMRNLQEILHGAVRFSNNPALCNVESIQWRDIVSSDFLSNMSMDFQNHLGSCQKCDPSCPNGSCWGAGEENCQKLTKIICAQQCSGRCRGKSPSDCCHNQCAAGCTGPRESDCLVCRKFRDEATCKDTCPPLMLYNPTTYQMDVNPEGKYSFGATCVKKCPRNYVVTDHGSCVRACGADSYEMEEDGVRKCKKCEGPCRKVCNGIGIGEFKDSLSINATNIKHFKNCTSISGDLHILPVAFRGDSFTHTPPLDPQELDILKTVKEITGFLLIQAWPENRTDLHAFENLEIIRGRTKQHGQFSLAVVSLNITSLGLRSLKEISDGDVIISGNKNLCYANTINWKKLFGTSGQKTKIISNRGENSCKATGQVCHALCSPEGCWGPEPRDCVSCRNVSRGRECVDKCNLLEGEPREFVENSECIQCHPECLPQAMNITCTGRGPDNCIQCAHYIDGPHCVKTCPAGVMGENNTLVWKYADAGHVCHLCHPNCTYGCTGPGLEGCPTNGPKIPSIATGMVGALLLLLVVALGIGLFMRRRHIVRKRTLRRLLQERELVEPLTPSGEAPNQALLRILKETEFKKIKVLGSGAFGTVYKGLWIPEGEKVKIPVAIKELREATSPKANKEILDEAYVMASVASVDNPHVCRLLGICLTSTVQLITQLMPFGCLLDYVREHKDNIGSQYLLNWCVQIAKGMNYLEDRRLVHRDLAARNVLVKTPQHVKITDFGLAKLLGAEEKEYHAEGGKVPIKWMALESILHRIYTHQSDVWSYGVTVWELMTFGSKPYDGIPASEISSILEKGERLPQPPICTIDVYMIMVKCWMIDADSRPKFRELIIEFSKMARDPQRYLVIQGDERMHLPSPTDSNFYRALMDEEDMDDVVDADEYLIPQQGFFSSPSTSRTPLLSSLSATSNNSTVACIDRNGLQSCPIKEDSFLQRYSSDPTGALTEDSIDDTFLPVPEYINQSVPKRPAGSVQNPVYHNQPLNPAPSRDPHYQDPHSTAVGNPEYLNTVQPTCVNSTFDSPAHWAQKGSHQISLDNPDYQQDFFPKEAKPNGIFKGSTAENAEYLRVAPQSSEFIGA
# method notes: Test 4: BaF3 (EGFR-V769insASV) cell proliferation test
# Assay type: cell-based
# condition context: 72 hours, Cell Titer-Glo, read-out: Test 4 - IC50
measured metric: GI50 (nM)

1. C=CC(=O)Nc1cc(Nc2ncnc(-c3cn(C)c4cc(Cl)c(OC)cc34)n2)c(OC)cc1N(C)CCN(C)C 466
2. C=CC(=O)Nc1cc(Nc2ncnc(Oc3ccc(Cl)c(OC)c3)n2)c(OC)cc1N(C)CCN(C)C 121
3. C=CC(=O)Nc1cc(Nc2ncnc(-c3cn(C)c4ccc(Cl)cc34)n2)c(OC)cc1N(C)CCN(C)C 45.5
4. C=CC(=O)Nc1cc(Nc2ncnc(-c3cn(C)c4ccc(F)cc34)n2)c(OCC(F)(F)F)cc1N(C)CCN(C)C 45
5. C=CC(=O)Nc1cc(Nc2ncnc(Oc3ccc(Cl)c(OC)c3)n2)c(OC(F)F)cc1N(C)CCN(C)C 88.6
6. C=CC(=O)Nc1cc(Nc2ncnc(-c3cn(C)c4ccc(OC)cc34)n2)c(OC)cc1N(C)CCN(C)C 57.6

1. C=CC(=O)Nc1cc(Nc2ncnc(-c3cn(C)c4ccc(F)cc34)n2)c(OC(F)F)cc1N(C)CCN(C)C
2. C=CC(=O)Nc1cc(Nc2nccc(-c3cnc4c(C(F)(F)F)cccn34)n2)c(OC)cc1N(C)CCN(C)C
IN: Which is greater in GI50, the first item 1 or the second item 2 ? Bench note: the answer is the label of the chosen record.
OUT: 2
(2: 477 nM, 1: 25.9 nM)

A. C=CC(=O)Nc1cc(Nc2nccc(-c3cnc4c(I)cccn34)n2)c(OC)cc1N(C)CCN(C)C
B. C=CC(=O)Nc1cc(Nc2nccc(-c3cnc4c(F)cccn34)n2)c(OC)cc1N(C)CCN(C)C
C. C=CC(=O)Nc1cc(Nc2ncnc(-c3cn(C)c4ccc(F)cc34)n2)c(OC)cc1N(C)CCN(C)C
IN: Reorder: GI50, max to min. # format: label list in the order the request specifies
OUT: A, B, C

====

# target or test system: BaF3 (EGFR/A763insFQEA) (Homo sapiens, UniProt P00533, INS763FQEA, cells depend on it)
# Sequence (P00533 with tags, fused parts or gaps INS763FQEA): as the sequence (P00533 with tags, fused parts or gaps INS763FQEA) above
# method notes: Test 14: EGFR exon 20 inserted A763insFQEA cell proliferation test
# Assay type: cell-based
# condition context: 72 hours, Cell Titer-Glo, read-out: Test 14 IC50
measured metric: GI50 (nM)

Use the examples below as a reference point.
compound	uom	GI50
C=CC(=O)Nc1cc(Nc2nccc(-c3cn(C)c4ccccc34)n2)c(OC(F)F)cc1N(C)CCNC [Compound 26]	nM	38.3
C=CC(=O)Nc1cc(Nc2nccc(-c3cn(C)c4ccc(F)cc34)n2)c(OC)cc1N(C)CCNC [Compound 25]	nM	51
C=CC(=O)Nc1cc(Nc2nccc(-c3cn(C)c4ccc(F)cc34)n2)c(OC(F)F)cc1N(C)CCNC [Compound 20]	nM	75.1
C=CC(=O)Nc1cc(Nc2ncnc(-n3cc(C)c4cnccc43)n2)c(OC)cc1N(C)CCN(C)C [Compound 18]	nM	131
C=CC(=O)Nc1cc(Nc2ncnc(N3CC(C)(C)c4ncccc43)n2)c(OC)cc1N(C)CCN(C)C [Compound 17]	nM	14.7
C=CC(=O)Nc1cc(Nc2ncnc(-c3cn(C)c4ccccc34)n2)c(OC)cc1N(C)CCN(C)C [Compound 16]	nM	12.8
C=CC(=O)Nc1cc(Nc2nccc(-c3cn(C)c4ccc(F)cc34)n2)c(OCC)cc1N(C)CCN(C)C [Compound 22]	nM	193
COc1cc2ncnc(Nc3cccc(Cl)c3F)c2cc1OC(=O)N1CCN(C)C[C@H]1C [Compound 38]	nM	71.2

a. C=CC(=O)Nc1cc(Nc2ncnc(-c3cnc4c(C)cccn34)n2)c(OC)cc1N(C)CCN(C)C [Compound 19]
b. C=CC(=O)Nc1cccc(Oc2nc(Nc3ccc(N4CCN(C)CC4)cc3)nc3ccsc23)c1 [Compound 36]
c. C=CC(=O)Nc1cc(Nc2nccc(-c3cn(C4CC4)c4ccccc34)n2)c(OC)cc1N(C)CCN(C)C [Compound 30]
d. C=CC(=O)Nc1cc(Nc2nccc(-c3cn(C)c4ccccc34)n2)c(OCC(F)(F)F)nc1N(C)CCN(C)C.CS(=O)(=O)O [Compound 31]
e. C=CC(=O)Nc1cccc(Oc2nc(Nc3ccc(N4CCN(C)CC4)c(F)c3)nc3[nH]ccc23)c1 [Compound 35]
IN: Put these in order: smallest GI50 first, largest last. Order the labels as requested and give them as your answer.
OUT: d, a, c, e, b
(d: 13 nM, a: 42.6 nM, c: 63.6 nM, e: 106 nM, b: 170 nM)

a. C=CC(=O)Nc1cc(Nc2nccc(-c3cn(C)c4ccccc34)n2)c(OCC)cc1N(C)CCNC [Compound 24]
b. C=CC(=O)Nc1cc(Nc2nccc(-n3cc(CN(C)C)c(-c4ccccc4)n3)n2)c(OC)cc1N1CCOCC1 [Compound 34]
IN: Looking at a and b , which one comes out lower in GI50 terms? State your choice using its label.
OUT: b
